System: OVCAR-3 ovarian
assayMethodText: NCI-60 one-dose screen, 48 h (100 = growth as untreated, 0 = no growth, -100 = all killed)
conditionSet: 10 µM unless noted
Protocol: Growth inhibition of the OVCAR-3 human tumor cell line is measured as a screen for anti-cancer activity. Cells are grown in 96 well plates and exposed to the test compound for 48 hours. Compounds are tested at a single concentration, which is 10^-5 M for most compounds. The reported endpoint is percent growth (GI% or GIPRCNT), where numbers from 0 - 100% represent growth inhibition, and numbers from -100% - 0 represent cell death. For example, a value of 40 represents 60% growth inhibition. […]
About 83,000 compounds went through this panel and 20% of them were active in at least one assay; those are over-represented in the sample as a whole. Activity calls are given as the source filed them. How the source made its calls: active means growth percent below 10; inactive means the rest.
Kindly state growth for each of the entries shown.

Please review the entries below; each comes with its answer.
compound: CCCCOc1nc2ccc(Cl)cc2cc1/C=C/C(=O)/C=C1/CC(c2cc3cc(Cl)ccc3nc2OCCCC)Nc2ccccc2N1 (centres undefined)
parameterMeasured: growth
result: 102% (inactive)
//
compound: COc1cc(-c2ccc(N=Nc3c(O)c(C(=O)Nc4ccccc4OC)cc4ccccc34)c(OC)c2)ccc1N=Nc1c(O)c(C(=O)Nc2ccccc2OC)cc2ccccc12
parameterMeasured: growth
result: 99.3% (inactive)
//
compound: Nc1c(C(=O)Nc2ccccc2)sc2nc3c(cc12)CCCCCC3
parameterMeasured: growth
result: -34.8% (active)
//
compound: Cc1[nH]c(-c2nc3ccccc3[nH]2)c(C)c1C(=O)NNc1ccc(Cl)cc1
parameterMeasured: growth
result: 98.4% (inactive)
//
compound: CCn1nc(C#Cc2c(C)ccc3c(Nc4ccc(Cl)cc4)nccc23)c2c(N)ncnc21
parameterMeasured: growth
result: 7% (active)

Below is a list of compounds. For each, state its recorded growth.
1. CC(C)n1nc(C#Cc2cccc(NC(=O)c3cccc(C(F)(F)F)c3)c2)c2c(N)ncnc21
2. COc1ccc(/C(C)=C(\c2ccc(Cl)cc2)c2ccc(OCCN3CCCCCC3)cc2)cc1F

A)
1.38% (active)
54.9% (inactive)

Please look at the items below and tell me growth for each one, in order.
1. Cc1cc(NS(=O)(=O)c2ccccc2)c(OS(=O)(=O)c2ccccc2)cc1C
2. Cc1cc(N2CCCCC2)nc(N(CCNc2ccnc3cc(Cl)ccc23)Cc2ccccn2)n1

A)
1. 110% (inactive)
2. 56.8% (inactive)

* * *

Tested on: LOX IMVI melanoma
assayMethodText: NCI-60 one-dose screen, 48 h (100 = growth as untreated, 0 = no growth, -100 = all killed)
conditionSet: 10 µM unless noted
Description: Growth inhibition of the LOX IMVI human tumor cell line is measured as a screen for anti-cancer activity. Cells are grown in 96 well plates and exposed to the test compound for 48 hours. Compounds are tested at a single concentration, which is 10^-5 M for most compounds. The reported endpoint is percent growth (GI% or GIPRCNT), where numbers from 0 - 100% represent growth inhibition, and numbers from -100% - 0 represent cell death. For example, a value of 40 represents 60% growth inhibition. […]
About 83,000 compounds went through this panel and 20% of them were active in at least one assay; those are over-represented in the sample as a whole.
parameterMeasured: growth (%)
Answers are plain numbers, in %.

Dear reader, for each entry below, please note its growth.
1. Cc1csc(NC(=O)c2sc3nc(-c4cccs4)ccc3c2N)n1
2. Clc1ccc(-c2nc(NCCc3ccccc3)nc3c(NCCc4ccccc4)cnn23)cc1

A)
95.1
60.9

For every listed record, write down its growth.
1. Cn1ccc(Cc2cnc(N)s2)n1
2. COc1ccccc1NC(=O)Nc1ccc(-c2nc3ccccc3o2)cc1
3. Cc1nc(Nc2ccc(N)cc2)c2ccccc2n1

A)
103
97.9
90.7

Here COc1cc(C2C=C(c3cccc(NC(C)=O)c3)Nc3ncnn32)cc(OC)c1OC (stereo unspecified) was tested on LOX IMVI melanoma, and its growth came to 42.1

* * *

Test system: IGROV1 ovarian
assayMethodText: NCI-60 one-dose screen, 48 h (100 = growth as untreated, 0 = no growth, -100 = all killed)
conditionSet: 10 µM unless noted
The panel holds about 83,000 compounds, 20% with a hit somewhere; the sample as a whole holds those more often.
parameterMeasured: growth (%)
One number for each entry, in %.

Please review the entries below; each comes with its answer.
molecule: C=C(C=O)[C@@H]1CC=C(C=O)CC1
parameterMeasured: growth
resultNumber: -24.5
//
molecule: CC(=O)Nc1cccc(C2=CC(c3ccc(C)cc3)n3ncnc3N2)c1 (stereo not given)
parameterMeasured: growth
resultNumber: 114
//
molecule: COc1ccc(/C=C2\COc3ccc(O)cc3C2=O)c(OC)c1
parameterMeasured: growth
resultNumber: 67.3
//
molecule: O=S(=O)(NCCNc1cc(-c2c(-c3cccc(O)c3)nc3sccn23)ccn1)c1ccc(Cl)cc1
parameterMeasured: growth
resultNumber: 54.1
//
molecule: C=C1C(=O)O[C@H]2[C@H]1CC/C(Cn1cc(CNCCc3c[nH]c4ccc(Cl)cc34)nn1)=C\CC[C@@]1(C)O[C@@H]21
parameterMeasured: growth
resultNumber: 2.11
//
molecule: c1ccc(-c2oc3ccccc3c2-c2ccccc2)cc1
parameterMeasured: growth
resultNumber: 87.8
//
molecule: CCOC(=O)c1sc2ccc(NCc3nc[nH]c3C)cc2c1NC(=O)c1cc(OC)c(OC)c(OC)c1
parameterMeasured: growth
resultNumber: 89.5
//
molecule: Cc1ccc(Nc2ccc(Nc3ccc(C)cc3S(=O)(=O)O)c3c2C(=O)c2ccccc2C3=O)c(S(=O)(=O)O)c1
parameterMeasured: growth
resultNumber: 114

// each molecule listed below needs its growth
1. O=C(CCCCCCCn1cc(-c2cccnc2)nn1)Nc1ccccc1-c1ccccc1
2. Clc1ccc2c(NCCCN3CCN(c4nc(N5CCOCC5)nc5ccccc45)CC3)ccnc2c1
3. C=CCOc1cccc(/C=C2\SC(=Nc3ccc(O)cc3)NC2=O)c1
4. C[C@H]1[C@H](C)CC[C@]2(C(=O)N3CCN(C)CC3)CC[C@]3(C)C(=CC[C@@H]4[C@@]5(C)C/C(=C/c6cccnc6)C(=O)C(C)(C)[C@@H]5CC[C@]43C)[C@H]12

A)
1. 28.3
2. 50.4
3. 20.3
4. -69.2

Quick request: growth for each listed item, please.
1. Cn1ncc2c(Nc3ccc(Br)cc3)nc(Nc3ccc(Br)cc3)nc21
2. COc1cc(C2C=C(c3cccc(NC(C)=O)c3)Nc3ncnn32)cc(OC)c1OC (stereo not given)
3. CN(C)c1ccc(C#Cc2c(F)cccc2Cl)cc1
4. Nc1nc(Nc2ccc(Cl)cc2)nn1S(=O)(=O)c1ccc(-c2ccc(F)cc2)cc1

A)
1: 48.9; 2: 30.4; 3: 47.2; 4: 76.2

* * *

Test system: MOLT-4 leukemia
assayMethodText: NCI-60 one-dose screen, 48 h
conditionSet: 10 µM unless noted
This is part of a sample that, as a whole, favours compounds with a hit. Of some 83,000 tested, about 20% had one in any assay. Activity calls are given as the source filed them. The calls were made as follows: active = growth percent below 10; inactive = the rest.
Field 'call' accepts active, inactive

Examples from the recorded data:
querySmiles: CCN1CCN(c2ccc(Nc3cc(-c4cccnc4Nc4c(Cl)c(OC)cc(OC)c4Cl)ncn3)cc2)CC1
systemName: MOLT-4 leukemia
labelValue: active

querySmiles: Cc1nc(Nc2ccc(NC(=S)Nc3ccccc3)cc2)nc2nc(Nc3cccc(Cl)c3)[nH]c(=O)c12
systemName: MOLT-4 leukemia
labelValue: inactive

querySmiles: Cl.[Pt].[c-]1ccccc1-c1ccccn1.c1ccc(P(c2ccccc2)C([PH+](c2ccccc2)c2ccccc2)[PH+](c2ccccc2)c2ccccc2)cc1
systemName: MOLT-4 leukemia
labelValue: inactive

querySmiles: Cn1ccnc1C(=O)/C=C/c1ccc(C(=O)Nc2ccc(S(F)(F)(F)(F)F)cc2)cc1
systemName: MOLT-4 leukemia
labelValue: active

querySmiles: CCN(CC)CCOC(=O)N1c2ccccc2Sc2ccccc21
systemName: MOLT-4 leukemia
labelValue: inactive

querySmiles: CN(C)c1cnccn1
systemName: MOLT-4 leukemia
labelValue: inactive

querySmiles: O=S(=O)(NCCNc1cc(-c2c(-c3cccc(O)c3)nc3sccn23)ccn1)c1ccc(Cl)cc1
systemName: MOLT-4 leukemia
labelValue: inactive

querySmiles: Cc1ccc(S(=O)(=O)N(CC[C@@H]2C[C@H]2c2cc3ccccc3o2)C(=O)NC2CCCCC2)cc1
systemName: MOLT-4 leukemia
labelValue: inactive

Next:
Q) Test call, this molecule: `NC(N)=N/N=C/c1ccc(Br)cc1`
A) inactive

* * *

Test system: LOX IMVI melanoma
assayMethodText: NCI-60 one-dose screen, 48 h
conditionSet: 10 µM unless noted
The panel holds about 83,000 compounds, 20% with a hit somewhere; the sample as a whole holds those more often. Activity calls are given as the source filed them. The calls were made as follows: active = growth percent below 10; inactive = the rest.
Hi! Could you answer with just one of these? TRUE for active, FALSE for inactive

molecule: O=[N+]([O-])c1cccc(/C=C/c2ccccn2)c1
labelValue: FALSE

molecule: O=C1CSC(c2ccccc2Cl)N1c1nnc(Cn2cnnc2)o1 (stereo not given)
labelValue: FALSE

molecule: Cc1ccc(S(=O)(=O)Nc2sccc2-c2nc(-c3ccccc3)no2)cc1
labelValue: FALSE

molecule: O=C(Oc1ccc[nH]c1=O)c1cc([N+](=O)[O-])cc([N+](=O)[O-])c1
labelValue: FALSE

molecule: Nc1c(C(=O)c2ccc(Cl)s2)sc2nc3c(cc12)CCCC3
labelValue: FALSE

Q) What is the recorded call for this molecule in the test? `O=C1/C(=C/c2ccccc2[N+](=O)[O-])COc2ccc(O)c(O)c21`
A) TRUE

Q) Dear colleague, could you share the recorded outcome for `O=[N+]([O-])c1ccc(-c2cc3c(Nc4ccc(Cl)c(C(F)(F)F)c4)ncnc3s2)cc1` when you have a moment?
A) TRUE

Q) Each molecule tested received a call. Report the one for `Cc1cc(-c2ccccc2)cc(SC#N)[n+]1[O-]` .
A) FALSE

Q) Give the logged outcome of this assay for the following molecule: CC(C)CCC[C@@H](C)[C@H]1CCC2C3=CCn4c(=O)ccc(=O)n4C3CC[C@@]21C (stereo not given in full)
A) TRUE
